target: BRD4-NUT (Homo sapiens, UniProt O60885+Q86Y26); construct: endogenous in cells; host or cells: RPMI2650; experiment: BRD4-NUT protein degradation by western blotting in RPMI2650 cells (24 h treatment); assay type: cell-based; conditions: RPM12650, read-out: BRD4-NUT (DC50)
Kindly supply the reported DC50 values for the records listed here.

Example compounds with recorded DC50:
compound	observable	recordedValue
CC[C@@H]1c2nnc(C)n2-c2cnc(Nc3ccc(C(=O)NC4CCN(CCCN5CCN(c6ccc7c(=O)n(C8CCC(=O)NC8=O)nc(C)c7c6)CC5)CC4)cc3OC)nc2N1CC1CCCCC1 (some centres unmarked) [ICT-0001568]	DC50	> 1 µM
CC[C@@H]1c2nnc(C)n2-c2cnc(Nc3ccc(C(=O)N4CCN(CCNc5ccc6c(=O)n(C7CCC(=O)NC7=O)ncc6c5)CC4)cc3OC)nc2N1CC1CCCCC1 (some centres unmarked) [ICT-0001603]	DC50	< 0.1 µM
CC[C@@H]1c2nnc(C)n2-c2cnc(Nc3ccc(C(=O)NC4CCN(c5ccc6c(=O)n(C7CCC(=O)NC7=O)nc(C)c6c5)CC4)cc3OC)nc2N1CC1CCCCC1 (some centres unmarked) [ICT-0001567]	DC50	> 1 µM
CC[C@@H]1c2nnc(C)n2-c2cnc(Nc3ccc(C(=O)NCCCC#Cc4ccc5c(=O)n(C6CCC(=O)NC6=O)ncc5c4)cc3OC)nc2N1CC1CCCCC1 (some centres unmarked) [ICT-0001515]	DC50	> 1 µM
CC[C@@H]1c2nnc(C)n2-c2cnc(Nc3ccc(C(=O)N4CCN(c5ccc6c(=O)n(C7CCC(=O)NC7=O)ncc6c5)CC4)cc3OC)nc2N1CC1CCCCC1 (some centres unmarked) [ICT-0001577]	DC50	> 1 µM
CC[C@@H]1c2nnc(C)n2-c2cnc(Nc3ccc(C(=O)NCCOCCOCCOCCNc4cccc5cnn(C6CCC(=O)NC6=O)c(=O)c45)cc3OC)nc2N1CC1CCCCC1 (some centres unmarked) [ICT-0001549]	DC50	> 1 µM
CC[C@@H]1c2nnc(C)n2-c2cnc(Nc3ccc(C(=O)NC4CCN(C(=O)C5CCN(c6ccc7c(C)nn(C8CCC(=O)NC8=O)c(=O)c7c6)CC5)CC4)cc3OC)nc2N1CC1CCCCC1 (some centres unmarked) [ICT-0001592]	DC50	< 0.1 µM
CC[C@@H]1c2nnc(C)n2-c2cnc(Nc3ccc(C(=O)NC4CCN(Cc5ccc(NC6CCC(=O)NC6=O)cc5)CC4)cc3OC)nc2N1CC1CCCCC1 (some centres unmarked) [ICT-0001569]	DC50	> 1 µM
CC[C@@H]1c2nnc(C)n2-c2cnc(Nc3ccc(C(=O)NC4CCN(C(=O)CCN5CCN(c6ccc(NC7CCC(=O)NC7=O)cc6F)CC5)CC4)cc3OC)nc2N1CC1CCCCC1 (some centres unmarked) [ICT-0001578]	DC50	> 1 µM
CC[C@@H]1c2nnc(C)n2-c2cnc(Nc3ccc(C(=O)NC4CCN(C(=O)CCCCN5CCN(c6ccc(NC7CCC(=O)NC7=O)cc6F)CC5)CC4)cc3OC)nc2N1CC1CCCCC1 (some centres unmarked) [ICT-0001571]	DC50	> 1 µM

Next compound, please.
// query Supply recorded DC50 for CC[C@@H]1c2nnc(C)n2-c2cnc(Nc3ccc(C(=O)N4CCN(CCNc5ccc6c(=O)n(C7CCC(=O)NC7=O)nc(C)c6c5)CC4)cc3OC)nc2N1CC1CCCCC1 (some centres unmarked) [ICT-0001599] here.
// result < 0.1 µM

----------
For each of the compounds below, state its IC50.
tested on: RPMI2650; experiment: Cancer cell antiproliferative activity / cell viability in RPMI2650 cells (72 h treatment); assay type: cell-based; conditions: Homo sapiens, RPMI-2650, RPMI2650, read-out: BRD4 (IC50)

Consider the reported IC50 for these compounds:
compound	IC50
Cc1sc2c(c1C)C(c1ccc(Cl)cc1)=N[C@@H](CC(=O)N1CCC(CN3CCN(c4cc5c(=O)n(C6CCC(=O)NC6=O)ncc5cc4F)CC3)CC1)c1nnc(C)n1-2 (some centres unmarked)	100 to 1000 nM
Cc1sc2c(c1C)C(c1ccc(Cl)cc1)=N[C@@H](CC(=O)Nc1ccc(OC[C@@H]3CN(c4ccc5c(=O)n(C6CCC(=O)NC6=O)nc(C)c5c4)CCO3)cc1)c1nnc(C)n1-2 (some centres unmarked)	100 to 1000 nM
Cc1sc2c(c1C)C(c1ccc(Cl)cc1)=N[C@@H](CC(=O)N1CCC(CN3CCN(c4ccc5c(C)nn(C6CCC(=O)NC6=O)c(=O)c5c4)CC3)CC1)c1nnc(C)n1-2 (some centres unmarked)	< 100 nM
Cc1sc2c(c1C)C(c1ccc(Cl)cc1)=N[C@@H](CC(=O)Nc1ccc(CN3CCN(c4ccc(NC5CCC(=O)NC5=O)cc4F)CC3)cc1)c1nnc(C)n1-2 (some centres unmarked)	< 100 nM

// query Give me measured IC50, please, for this compound: Cc1sc2c(c1C)C(c1ccc(Cl)cc1)=N[C@@H](CC(=O)N1CC(N3CCN(c4ccc5c(=O)n(C6CCC(=O)NC6=O)ncc5c4)CC3)C1)c1nnc(C)n1-2 (some centres unmarked)
// result 100 to 1000 nM

----------
target: BRD4 (Homo sapiens); test: BRD4 protein degradation by western blotting in RPMI2650 cells (24 h treatment); assay type: cell-based; parameters: To evaluate the resolution of PROTAC for BRD4 expressed in cells; endogenous in cells; host or cells: RPMI2650; conditions: RPM12650, read-out: BRD4 (DC50)
Provide the reported DC50 of each item.

Solved entries (count: 3):
molecule	recordedValue
CC[C@@H]1c2nnc(C)n2-c2cnc(Nc3ccc(C(=O)N4CCN(CCNc5cccc6c(=O)n(C7CCC(=O)NC7=O)ncc56)CC4)cc3OC)nc2N1CC1CCCCC1 (some centres unmarked) [ICT-0001602]	< 100 nM
CC[C@@H]1c2nnc(C)n2-c2cnc(Nc3ccc(C(=O)NCCCC#Cc4ccc5c(=O)n(C6CCC(=O)NC6=O)ncc5c4)cc3OC)nc2N1CC1CCCCC1 (some centres unmarked) [ICT-0001515]	> 1000 nM
CC[C@@H]1c2nnc(C)n2-c2cnc(Nc3ccc(C(=O)N4CCN(CCNc5ccc6c(=O)n(C7CCC(=O)NC7=O)nc(C)c6c5)CC4)cc3OC)nc2N1CC1CCCCC1 (some centres unmarked) [ICT-0001599]	< 100 nM

Below are 2 molecules. Give each one its DC50.
1. CC[C@@H]1c2nnc(C)n2-c2cnc(Nc3ccc(C(=O)N4CCN(c5ccc6c(=O)n(C7CCC(=O)NC7=O)nc(C)c6c5)CC4)cc3OC)nc2N1CC1CCCCC1 (some centres unmarked) [ICT-0001576]
2. CCC1c2nnc(C)n2-c2cnc(Nc3ccc(C(=O)NC4CCN(CCN5CCN(c6ccc7c(=O)n(C8CCC(=O)NC8=O)nc(C)c7c6)CC5)CC4)cc3OC)nc2N1CC1CCCCC1 (centres unmarked) [ICT-0001560]

// result
1. < 100 nM
2. < 100 nM

----------
I'd be grateful if you could share measured DC50 for these entries.
molecular target: BRD4 (Homo sapiens); assay: BRD4 protein degradation by western blotting in RPMI2650 cells (24 h treatment); type: cell-based; design: To evaluate the resolution of PROTAC for BRD4 expressed in cells; endogenous in cells; host or cells: RPMI2650; conditions: RPM12650, read-out: BRD4 (DC50)

molecule	measurementTarget	DC50
CC[C@@H]1c2nnc(C)n2-c2cnc(Nc3ccc(C(=O)NC4CCN(c5ccc(NC6CCC(=O)NC6=O)cc5F)CC4)cc3OC)nc2N1CC1CCCCC1 (some centres unmarked)	BRD4 (Homo sapiens)	< 0.1 µM
CC[C@@H]1c2nnc(C)n2-c2cnc(Nc3ccc(C(=O)NC4CCN(c5ccc6c(=O)n(C7CCC(=O)NC7=O)nc(C)c6c5)CC4)cc3OC)nc2N1CC1CCCCC1 (some centres unmarked)	BRD4 (Homo sapiens)	> 1 µM
CC[C@@H]1c2nnc(C)n2-c2cnc(Nc3ccc(C(=O)NC4CCN(Cc5ccc(NC6CCC(=O)NC6=O)cc5)CC4)cc3OC)nc2N1CC1CCCCC1 (some centres unmarked)	BRD4 (Homo sapiens)	> 1 µM
CC[C@@H]1c2nnc(C)n2-c2cnc(Nc3ccc(C(=O)NC4CCN(C(=O)C5CCN(c6ccc7c(C)nn(C8CCC(=O)NC8=O)c(=O)c7c6)CC5)CC4)cc3OC)nc2N1CC1CCCCC1 (some centres unmarked)	BRD4 (Homo sapiens)	< 0.1 µM
CC[C@@H]1c2nnc(C)n2-c2cnc(Nc3ccc(C(=O)N4CCN(CC5CCN(c6ccc(NC7CCC(=O)NC7=O)cc6F)CC5)CC4)cc3OC)nc2N1CC1CCCCC1 (some centres unmarked)	BRD4 (Homo sapiens)	< 0.1 µM

Value sought for every listed molecule: DC50.
1. CC[C@@H]1c2nnc(C)n2-c2cnc(Nc3ccc(C(=O)NC4CCN(C(=O)CCCCN5CCN(c6ccc(NC7CCC(=O)NC7=O)cc6F)CC5)CC4)cc3OC)nc2N1CC1CCCCC1 (some centres unmarked)
2. CC[C@@H]1c2nnc(C)n2-c2cnc(Nc3ccc(C(=O)NCCNc4cccc5cnn(C6CCC(=O)NC6=O)c(=O)c45)cc3OC)nc2N1CC1CCCCC1 (some centres unmarked)
3. CC[C@@H]1c2nnc(C)n2-c2cnc(Nc3ccc(C(=O)N4CCC(N5CCN(c6ccc7c(=O)n(C8CCC(=O)NC8=O)nc(C)c7c6)CC5)CC4)cc3OC)nc2N1CC1CCCCC1 (some centres unmarked)
4. CCC1c2nnc(C)n2-c2cnc(Nc3ccc(C(=O)NC4CCN(CCN5CCN(c6ccc(NC7CCC(=O)NC7=O)cc6F)CC5)CC4)cc3OC)nc2N1CC1CCCCC1 (centres unmarked)
5. CC[C@@H]1c2nnc(C)n2-c2cnc(Nc3ccc(C(=O)NC4CCN(CCOCCOc5ccc(NC6CCC(=O)NC6=O)cc5F)CC4)cc3OC)nc2N1CC1CCCCC1 (some centres unmarked)
6. CC[C@@H]1c2nnc(C)n2-c2cnc(Nc3ccc(C(=O)N4CCN(CCNc5ccc6c(=O)n(C7CCC(=O)NC7=O)ncc6c5)CC4)cc3OC)nc2N1CC1CCCCC1 (some centres unmarked)

// result
1. > 1 µM
2. < 0.1 µM
3. < 0.1 µM
4. < 0.1 µM
5. > 1 µM
6. < 0.1 µM
